- SYSTEM NAME: hS1P1R (hEdg1) membrane protein (Homo sapiens)
- TEST DESCRIPTION: hS1P1R GTPγS binding assay (Assay 3a)
READOUT KIND: EC50

CC(C)N(C)c1cc(-c2nnc(-c3cc(F)c(OCC(N)CO)cc3Cl)s2)ccn1 (centres unmarked)	250 to 2800 nM
CC(C)Nc1ccc(-c2nnc(-c3cc(F)c(OC[C@H](N)CO)cc3Cl)s2)cn1	250 to 2800 nM

Ask: Item under review: CC(C)Oc1ccc(-c2nnc(-c3cc(F)c(OC[C@H](N)COP(=O)(O)O)cc3Cl)s2)cc1C#N . Reported EC50?
Result: ≤ 10 nM

Ask: Item under review: Cc1cc(-c2nnc(-c3cc(F)c(OC[C@H](N)[C@H](C)O)cc3Cl)s2)ccc1OC(C)C . Reported EC50?
Result: ≤ 10 nM

Ask: Item under review: CC(C)Nc1ccc(-c2nnc(-c3cc(F)c(OC[C@H](N)[C@@H](C)O)cc3Cl)s2)cn1 . Reported EC50?
Result: 250 to 2800 nM

Ask: Item under review: CC(C)Oc1ccc(-c2nnc(-c3cc(F)c(OC[C@@H](N)COP(=O)(O)O)cc3Cl)s2)cc1Br . Reported EC50?
Result: ≤ 10 nM

Ask: Item under review: CC(C)Oc1ccc(-c2nnc(-c3cc(F)c(OCC(N)CO)cc3Cl)s2)cn1 (centres unmarked) . Reported EC50?
Result: 50 to 250 nM

Ask: Item under review: CC(C)Nc1ncc(-c2nnc(-c3cc(F)c(OC[C@H](N)CO)cc3Cl)s2)cc1Cl . Reported EC50?
Result: 10 to 50 nM

====

- SYSTEM NAME: hS1P1R (hEdg1) membrane protein (Homo sapiens, UniProt P21453)
- Sequence (P21453 whole entry): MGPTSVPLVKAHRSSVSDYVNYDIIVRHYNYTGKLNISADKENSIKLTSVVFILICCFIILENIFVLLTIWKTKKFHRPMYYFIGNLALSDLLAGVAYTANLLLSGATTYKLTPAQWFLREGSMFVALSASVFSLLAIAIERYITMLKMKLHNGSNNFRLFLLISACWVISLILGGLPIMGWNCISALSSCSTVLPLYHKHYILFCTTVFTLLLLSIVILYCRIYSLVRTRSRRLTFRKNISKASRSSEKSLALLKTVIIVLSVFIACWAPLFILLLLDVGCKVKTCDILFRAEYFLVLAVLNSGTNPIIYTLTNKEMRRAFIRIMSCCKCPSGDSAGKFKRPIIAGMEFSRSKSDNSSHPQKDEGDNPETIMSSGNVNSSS
- TEST DESCRIPTION: hS1P1R GTPγS binding assay (Assay 3a)
READOUT KIND: EC50

Here is how some compounds turned out for EC50.
CC(C)Oc1ccc(-c2nnc(-c3cc(F)c(OC[C@H](N)CO)cc3Cl)s2)cc1C(F)(F)F	≤ 10 nM
Cc1cc(-c2nnc(-c3cc(F)c(OC[C@H](N)[C@@H](C)O)cc3Cl)s2)cnc1NC(C)C	50 to 250 nM
Cc1cc(-c2nnc(-c3cc(F)c(OC[C@@H](N)[C@@H](C)O)cc3Cl)s2)cc(NC(C)C)n1	≤ 10 nM
CCOc1ccc(-c2nnc(-c3cc(F)c(OC[C@H](N)CO)cc3Cl)s2)cc1C#N	≤ 10 nM
CC(C)Nc1ccc(-c2nnc(-c3cc(F)c(OC[C@H](N)[C@@H](C)OP(=O)(O)O)cc3Cl)s2)cn1	≤ 10 nM

Ask: Item under review: CC(C)Oc1ccc(-c2nnc(-c3cc(F)c(OC[C@H](N)COP(=O)(O)O)cc3Cl)s2)cc1Cl . Reported EC50?
Result: ≤ 10 nM

Ask: Item under review: CC(C)N(C)c1ccc(-c2nnc(-c3cc(F)c(OCC(N)CO)cc3Cl)s2)cn1 (stereo not shown) . Reported EC50?
Result: 250 to 2800 nM

Ask: Item under review: Cc1cc(-c2nnc(-c3cc(F)c(OC[C@H](N)[C@@H](C)O)cc3Cl)s2)ccc1OC(C)C . Reported EC50?
Result: ≤ 10 nM

Ask: Item under review: CC(C)Nc1ccc(-c2nnc(-c3cc(F)c(OC[C@@H](N)CO)cc3Cl)s2)cc1Cl . Reported EC50?
Result: ≤ 10 nM

Ask: Item under review: Cc1cc(-c2nnc(-c3cc(F)c(OC[C@@H](N)[C@H](C)O)cc3Cl)s2)cc(NC(C)C)n1 . Reported EC50?
Result: ≤ 10 nM

Ask: Item under review: CC(C)Oc1ccc(-c2nnc(-c3cc(F)c(OC[C@H](N)CO)cc3Cl)s2)cc1C#N . Reported EC50?
Result: ≤ 10 nM

====

- SYSTEM NAME: S1P3 (Homo sapiens, UniProt Q99500)
- Construct: host or cells: HEK293 (transient transfection)
- Sequence (P32121 whole entry): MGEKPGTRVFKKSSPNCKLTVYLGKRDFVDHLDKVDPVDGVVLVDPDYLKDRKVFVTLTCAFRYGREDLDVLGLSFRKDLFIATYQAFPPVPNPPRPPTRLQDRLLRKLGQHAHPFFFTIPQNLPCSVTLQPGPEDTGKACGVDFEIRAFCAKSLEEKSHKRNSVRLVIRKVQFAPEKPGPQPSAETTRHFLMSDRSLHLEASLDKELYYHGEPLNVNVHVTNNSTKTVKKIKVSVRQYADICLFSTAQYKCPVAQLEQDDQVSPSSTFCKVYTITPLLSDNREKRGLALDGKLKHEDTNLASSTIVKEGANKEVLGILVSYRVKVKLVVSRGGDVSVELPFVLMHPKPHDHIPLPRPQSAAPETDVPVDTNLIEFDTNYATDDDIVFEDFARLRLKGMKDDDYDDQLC
- Sequence (Q99500 whole entry): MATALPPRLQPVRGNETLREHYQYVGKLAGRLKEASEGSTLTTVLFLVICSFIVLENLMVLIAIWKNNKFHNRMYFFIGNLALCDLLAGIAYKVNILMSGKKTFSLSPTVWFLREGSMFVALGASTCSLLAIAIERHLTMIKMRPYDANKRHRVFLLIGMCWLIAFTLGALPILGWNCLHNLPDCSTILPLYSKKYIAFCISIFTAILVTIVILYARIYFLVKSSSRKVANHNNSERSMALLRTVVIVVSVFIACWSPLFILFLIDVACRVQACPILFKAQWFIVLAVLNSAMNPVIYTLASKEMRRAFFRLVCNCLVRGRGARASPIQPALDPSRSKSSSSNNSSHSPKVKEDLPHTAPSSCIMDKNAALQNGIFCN
- TEST DESCRIPTION: S1P3 Tango β-arrestin recruitment assay in HEK293 cells (Assay 5)
- Assay type: cell-based
- CONDITIONS USED: read-out: Assay 5 EC50
Listed here are molecules together with their documented EC50.

Here is how some molecules turned out for EC50.
CC(C)Oc1ccc(-c2nnc(-c3cc(F)c(OC[C@H](N)CO)c(Cl)c3)s2)cc1Cl	> 10 µM
CC(C)Nc1ccc(-c2nnc(-c3cc(F)c(OC[C@@H](N)[C@@H](C)O)cc3Cl)s2)cn1	> 10 µM
Cc1cc(-c2nnc(-c3cc(F)c(OC[C@@H](N)[C@H](C)O)cc3Cl)s2)cnc1NC(C)C	> 10 µM
CC(C)Oc1ccc(-c2nnc(-c3cc(F)c(OC[C@H](N)CO)cc3Cl)s2)cc1Br	> 10 µM

Please find the next molecule below.
Ask: Item under review: CC(C)Oc1ccc(-c2nnc(-c3cc(F)c(OC[C@@H](N)CO)cc3Cl)s2)cc1Cl . Reported EC50?
Result: ≤ 0.25 µM

====

Listed here are compounds together with their documented EC50.
- SYSTEM NAME: S1P1 (Homo sapiens, UniProt P21453)
- Construct: host or cells: U2OS
- Sequence (P32121 whole entry): as the sequence (P32121 whole entry) above
- Sequence (P21453 whole entry): as the sequence (P21453 whole entry) above
- TEST DESCRIPTION: Tango β-arrestin recruitment assay in U2OS cells (Assay 2b)
- Assay type: cell-based
- CONDITIONS USED: read-out: Assay 2b EC50

COCCOc1ccc(-c2nnc(-c3cc(F)c(OC[C@H](N)CO)cc3Cl)s2)cc1C#N	10 to 50 nM
CCOc1ccc(-c2nnc(-c3cc(F)c(OC[C@H](N)CO)cc3Cl)s2)cc1C#N	10 to 50 nM
CC(C)Oc1ccc(-c2nnc(-c3cc(F)c(OC[C@H](N)CO)c(Cl)c3)s2)cc1Cl	10 to 50 nM

Ask: What value of EC50 on S1P1 (Homo sapiens, UniProt P21453) does CC(C)Cc1ccc(-c2nnc(-c3cc(F)c(OC[C@H](N)CO)cc3Cl)s2)cc1 have?
Result: 50 to 250 nM

Ask: What value of EC50 on S1P1 (Homo sapiens, UniProt P21453) does CC(C)Oc1ccc(-c2nnc(-c3cc(F)c(OC[C@H](N)CO)cc3Cl)s2)nc1Cl have?
Result: 10 to 50 nM

Ask: What value of EC50 on S1P1 (Homo sapiens, UniProt P21453) does CC(C)Oc1ccc(-c2nnc(-c3cc(F)c(OC[C@@H](N)CO)cc3Cl)s2)cc1Br have?
Result: ≤ 10 nM

Ask: What value of EC50 on S1P1 (Homo sapiens, UniProt P21453) does Cc1cc(-c2nnc(-c3cc(F)c(OC[C@@H](N)[C@@H](C)O)cc3Cl)s2)cc(NC(C)C)n1 have?
Result: ≤ 10 nM

Ask: What value of EC50 on S1P1 (Homo sapiens, UniProt P21453) does N[C@H](CO)COc1cc(Cl)c(-c2nnc(-c3ccc(OC(F)(F)F)cc3)s2)cc1F have?
Result: 250 to 2800 nM

Ask: What value of EC50 on S1P1 (Homo sapiens, UniProt P21453) does CC(C)Oc1ccc(-c2nnc(-c3cc(F)c(OC[C@H](N)[C@@H](C)O)cc3Cl)s2)cc1Cl have?
Result: ≤ 10 nM

Ask: What value of EC50 on S1P1 (Homo sapiens, UniProt P21453) does CC(C)Nc1ccc(-c2nnc(-c3cc(F)c(OC[C@H](N)[C@@H](C)O)cc3Cl)s2)cn1 have?
Result: 10 to 50 nM

Ask: What value of EC50 on S1P1 (Homo sapiens, UniProt P21453) does CC(C)Oc1ccc(-c2nnc(-c3cc(F)c(OC[C@H](N)CO)cc3Cl)s2)cc1Cl have?
Result: 10 to 50 nM

Ask: What value of EC50 on S1P1 (Homo sapiens, UniProt P21453) does CC(C)Oc1ncc(-c2nnc(-c3cc(F)c(OC[C@@H](N)CO)cc3Cl)s2)cc1Cl have?
Result: ≤ 10 nM

Ask: What value of EC50 on S1P1 (Homo sapiens, UniProt P21453) does CC(C)Nc1ccc(-c2nnc(-c3cc(F)c(OCC(N)CO)cc3Cl)s2)cn1 (centres unmarked) have?
Result: ≤ 10 nM

Ask: What value of EC50 on S1P1 (Homo sapiens, UniProt P21453) does N[C@H](CO)COc1cc(Cl)c(-c2nnc(-c3cccc(Cl)c3)s2)cc1F have?
Result: 10 to 50 nM

Ask: What value of EC50 on S1P1 (Homo sapiens, UniProt P21453) does CC(C)Nc1ccc(-c2nnc(-c3cc(F)c(OC[C@H](N)COP(=O)(O)O)cc3Cl)s2)cn1 have?
Result: ≤ 10 nM

Ask: What value of EC50 on S1P1 (Homo sapiens, UniProt P21453) does CC(C)Nc1cc(-c2nnc(-c3cc(F)c(OC[C@H](N)[C@H](C)O)cc3Cl)s2)ccn1 have?
Result: 250 to 2800 nM

Ask: What value of EC50 on S1P1 (Homo sapiens, UniProt P21453) does CC(C)Oc1ccc(-c2nnc(-c3cc(F)c(OC[C@@H](N)CO)cc3Cl)s2)cc1Cl have?
Result: ≤ 10 nM

Values were extracted from patent US20100249071A1.
